What melting point was measured for each of the following?

Below: 3 compounds and their reported melting point.
* O=C1Nc2cc3c(cc2C12COc1cc4c(cc12)CCO4)OCCO3 (centres unmarked) | > 250 °C
* O=C1Nc2ccccc2C12COc1cc3nccnc3cc12 (centres unmarked) | 206 to 207 °C
* Cc1cccc(CN2C(=O)C3(COc4cc5c(cc43)OCCO5)c3ccccc32)n1 (centres unmarked) | 183 to 185 °C

# per-item lookup of melting point; items listed below
1. O=C1N(CCCO)c2ccccc2C12COc1cc3c(cc12)CCO3 (centres unmarked)
2. CN1C(=O)C2(COc3cc4c(cc32)OCCO4)c2c(C(=O)NC3CCC3)cccc21 (centres unmarked)
3. CN(C)c1ccc(CN2C(=O)C3(COc4cc5c(cc43)OCCO5)c3ccccc32)cn1 (centres unmarked)
4. CN(C)c1ccc(-c2cccc3c2C2(COc4cc5c(cc42)OCO5)C(=O)N3Cc2ccc(Cl)s2)cn1 (centres unmarked)

result:
54 to 56 °C
128 to 129 °C
93 to 95 °C
215 to 218 °C

query: Return value of melting point for input Cc1noc2cc3c(cc12)C1(CO3)C(=O)N(Cc2ccccn2)c2ccccc21 (centres unmarked) , no commentary.
result: 142 to 143 °C

====

Target: CYP3A4 (Homo sapiens, UniProt P08684)
Sequence (P08684 whole entry): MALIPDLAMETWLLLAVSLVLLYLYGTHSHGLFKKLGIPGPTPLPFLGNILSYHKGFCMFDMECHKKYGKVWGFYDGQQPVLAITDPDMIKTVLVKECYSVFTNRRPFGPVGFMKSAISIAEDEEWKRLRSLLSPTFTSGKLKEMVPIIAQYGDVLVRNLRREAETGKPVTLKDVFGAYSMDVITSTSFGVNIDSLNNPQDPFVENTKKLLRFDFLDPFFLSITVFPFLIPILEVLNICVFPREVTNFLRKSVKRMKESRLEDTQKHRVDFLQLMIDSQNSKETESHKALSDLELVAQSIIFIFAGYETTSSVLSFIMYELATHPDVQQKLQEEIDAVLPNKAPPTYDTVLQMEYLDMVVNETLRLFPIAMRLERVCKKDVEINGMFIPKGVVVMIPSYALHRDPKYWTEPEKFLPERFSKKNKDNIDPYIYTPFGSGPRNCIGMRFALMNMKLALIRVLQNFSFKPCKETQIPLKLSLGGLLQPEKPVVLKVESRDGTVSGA
Assay: Cytochrome P450 (CYP450) Inhibition Assay, CYP3A4 (Vivid fluorescence, BOMCC substrate)
Conditions: human, P450 Baculosomes (recombinant CYP3A4), probe BOMCC (Vivid substrate)
Would you mind telling me the reported inhibition at 10 µM of each entry?

Please report inhibition at 10 µM for every entry that follows.
1. COC(=O)c1ccccc1CN1C(=O)C2(COc3cc4c(cc32)CCO4)c2ccccc21 (stereo not shown)
2. O=C1N(Cc2cccc(OCc3ccccc3)c2)c2ccccc2C12COc1cc3c(cc12)CCO3 (stereo not shown)
3. COc1ccc(-c2cccc3c2C2(COc4cc5c(cc42)OCCO5)C(=O)N3Cc2ccccn2)cc1 (stereo not shown)
4. CCCCCCNC(=O)c1cccc2c1C1(COc3cc4c(cc31)OCCO4)C(=O)N2C (stereo not shown)

result:
1. < 50%
2. < 50%
3. > 50%
4. > 50%

====

Structures can show the parent of a compound that is named as a salt.
VALUE KIND: melting point

Previously resolved entries follow.
- CN1C(=O)C2(COc3cc4c(cc32)OCCO4)c2c(-c3cnn(C)c3)cccc21 (stereo not shown): 220 to 222 °C
- O=C1N(Cc2nc3ncccc3o2)c2ccccc2C12COc1cc3c(cc12)OCO3 (stereo not shown): 202 to 204 °C

Please report melting point for every entry that follows.
1. Cn1c(CN2C(=O)C3(COc4cc5c(cc43)OCCO5)c3ccccc32)nc2ccccc21 (stereo not shown)
2. COc1cc2c(cc1F)C1(CO2)C(=O)N(CC2CCCCO2)c2ccccc21 (stereo not shown)
3. O=C1Nc2ccc(F)cc2C12COc1cc3c(cc12)CCO3 (stereo not shown)
4. COc1cc2c(cc1C)[C@]1(CO2)C(=O)N(CN2CCN(C)CC2)c2ccccc21 (as salt: chloride)
5. N#Cc1cc2c(cc1F)OCC21C(=O)N(Cc2ncccc2C(F)(F)F)c2ccccc21 (stereo not shown)
6. O=C1N(Cc2nsc(Cl)n2)c2ccccc2C12COc1cc3c(cc12)OCO3 (stereo not shown)

result:
> 240 °C
131 to 133 °C
257 to 259 °C
> 200 °C (dec.)
209 to 211 °C
114 to 116 °C

====

Biological target: CYP3A4 (Homo sapiens, UniProt P08684)
Test: Cytochrome P450 (CYP450) Inhibition Assay, CYP3A4 (Vivid fluorescence, BOMCC substrate)
Conditions: human, P450 Baculosomes (recombinant CYP3A4), probe BOMCC (Vivid substrate)
Counter-ions that a name gives are not always drawn.
VALUE KIND: inhibition at 10 µM

These solved cases illustrate the format of a correct answer.
- NC(=O)c1ccc(CN2C(=O)C3(COc4cc5c(cc43)CCO5)c3ccccc32)cc1 (centres unmarked): > 50%
- O=C1N(Cc2ccc(F)cn2)c2ccccc2C12COc1cc3c(cc12)OCCO3 (centres unmarked): < 50%
- O=C1N(Cc2ccc(N[C@@H]3CCNC3)cc2)c2ccccc2C12COc1cc(F)c(F)cc12 (some centres unmarked) [Example 33.2, hydrochloride]: > 50%
- Cc1noc2cc3c(cc12)C1(CO3)C(=O)N(C[C@H]2CCCO2)c2ccccc21 (some centres unmarked): < 50%
- O=C1N(Cc2ccc(-c3ccccc3F)cc2)c2ccccc2C12COc1cc3c(cc12)CCO3 (centres unmarked): < 50%
- CN1C(=O)C2(COc3cc4c(cc32)OCCO4)c2c(NC(=O)C3CCCC3)cccc21 (centres unmarked): < 50%
- Cc1cc2c(cc1C)C1(CO2)C(=O)N(C(c2ccccc2)c2ccccc2)c2ccccc21 (centres unmarked): < 50%
- Cc1nc(-c2cccc3c2C2(COc4cc5c(cc42)OCCO5)C(=O)N3C)cs1 (centres unmarked): > 50%
- CCCCOc1ccc(-c2cccc3c2C2(COc4cc5c(cc42)CCO5)C(=O)N3C[C@H]2CCCO2)cc1 (some centres unmarked): < 50%
- O=C1N(CCc2noc(C(F)(F)F)n2)c2ccccc2C12COc1cc3c(cc12)OCO3 (centres unmarked): > 50%

Could I get inhibition at 10 µM for every one of these entries?
1. CN1CCOc2cc3c(cc21)C1(CO3)C(=O)N(Cc2ccc(C(F)(F)F)o2)c2ccccc21.Cl (centres unmarked) [Example 2.28, hydrochloride]
2. N#CCN1C(=O)C2(COc3cc4c(cc32)OCO4)c2ccccc21 (centres unmarked)

result:
1. > 50%
2. > 50%

====

Molecular target: CYP3A4 (Homo sapiens, UniProt P08684)
Test: Cytochrome P450 (CYP450) Inhibition Assay, CYP3A4 (Vivid fluorescence, BOMCC substrate)
Conditions: human, P450 Baculosomes (recombinant CYP3A4), probe BOMCC (Vivid substrate)
Please go through the items and note down their inhibition at 10 µM.

As a guide, the following entries are already answered.
- O=C1N(Cc2cnc(N3CCCCC3)s2)c2ccccc2C12COc1cc3c(cc12)OCO3 (centres unmarked): > 50%
- CN1C(=O)C2(COc3cc4c(cc32)OCO4)c2c(C3CCOC3)cccc21 (centres unmarked): > 50%
- Cc1nc(-c2cccc(CN3C(=O)C4(COc5cc6c(cc54)OCCO6)c4ccccc43)c2)no1 (centres unmarked): > 50%
- O=C1N(CCCO)c2ccccc2C12COc1cc3c(cc12)OCCO3 (centres unmarked): < 50%
- O=C1N(Cc2ccc(OCc3ccccc3)cc2)c2ccccc2C12COc1cc3c(cc12)OCCO3 (centres unmarked): < 50%
- CC(C)N1CCOC(CN2C(=O)C3(COc4cc5c(cc43)CCO5)c3ccccc32)C1 (centres unmarked): > 50%
- O=C1N(Cn2nc3ccccc3n2)c2ccccc2C12COc1cc3c(cc12)CCO3 (centres unmarked): > 50%
- CN(C)c1ccc(-c2cccc3c2C2(COc4cc5c(cc42)CCO5)C(=O)N3C[C@H]2CCCO2)cn1 (some centres unmarked): > 50%

Quick one: give me inhibition at 10 µM for each item below, same order please.
1. O=C1N(CC2CN(Cc3ccccc3)CCO2)c2ccccc2C12COc1cc3c(cc12)CCO3 (centres unmarked)
2. N#Cc1cc2c(cc1F)OCC21C(=O)N(Cc2ccccc2C(F)(F)F)c2ccccc21 (centres unmarked)
3. O=C1N(C[C@H]2COCCO2)c2ccccc2C12COc1cc3c(cc12)OCCCO3 (some centres unmarked)
4. CN1C(=O)C2(COc3cc4c(cc32)OCCO4)c2c(C(=O)NC3CCCCC3)cccc21 (centres unmarked)
5. O=C1N(CCC(O)C(F)(F)F)c2ccccc2C12COc1cc3c(cc12)CCO3 (centres unmarked)
6. O=C1Nc2cccc(Br)c2C12COc1cc3c(cc12)OCCO3 (centres unmarked)

result:
["> 50%", "> 50%", "< 50%", "< 50%", "> 50%", "< 50%"]

====

Field: inhibition at 10 µM. Provide a value for each of the compounds that follow.
Target: UniProtKB P08684
Test: Cytochrome P450 (CYP450) Inhibition Assay, CYP3A4 (Vivid fluorescence, BOMCC substrate)
Conditions: human, P450 Baculosomes (recombinant CYP3A4), probe BOMCC (Vivid substrate)

- O=C(O)c1ccc(CN2C(=O)C3(COc4cc5c(cc43)OCCO5)c3ccccc32)cc1 (centres unmarked) [Example 11.87]: < 50%
- O=C(c1ccc(CN2C(=O)C3(COc4cc5c(cc43)CCO5)c3ccccc32)cc1)N1CCOCC1 (centres unmarked) [Example 12.33]: > 50%
- O=C1N(Cc2ncccc2C(F)(F)F)c2ccccc2C12COc1c(Cl)cc3c(c12)OCCO3 (centres unmarked) [Example 11.108]: < 50%
- O=C1N(Cc2ccncn2)c2ccccc2C12COc1cc3c(cc12)CCO3 (centres unmarked) [Example 9.6]: < 50%
- COc1cc2c(cc1C)C1(CO2)C(=O)N(C[C@H]2CCCO2)c2ccccc21 (some centres unmarked) [Example 4.61]: < 50%

Required: inhibition at 10 µM, one value per compound below.
1. O=C1Nc2c(F)cccc2C12COc1cc3c(cc12)CCO3 (centres unmarked) [Example 3.16]
2. O=C1N(C[C@H]2CCCO2)c2cc(F)ccc2C12COc1cc3c(cc12)CCO3 (some centres unmarked) [Example 9.19]
3. CN1C(=O)C2(COc3cc4c(cc32)OCCO4)c2c(OCc3ccccn3)cccc21 (centres unmarked) [Example 16.85]
4. O=C1N(Cc2ccc(Br)o2)c2ccccc2C12COc1cc3c(cc12)CCO3 (centres unmarked) [Example 4.18]
5. NC(=O)c1coc(CN2C(=O)C3(COc4cc5c(cc43)CCO5)c3ccccc32)n1 (centres unmarked) [Example 13.3]
6. COc1cc2c(cc1C)C1(CO2)C(=O)Nc2ccccc21 (centres unmarked) [Example 3]

result:
< 50%
< 50%
> 50%
> 50%
< 50%
> 50%

Go through the items and report each one's inhibition at 10 µM.
1. O=C1N(Cc2ccccc2C(F)(F)F)c2ccccc2C12COc1cc3[nH]ncc3cc12 (centres unmarked) [Example 46]
2. CN1C(=O)CC[C@H]1CN1C(=O)C2(COc3cc4c(cc32)CCO4)c2ccccc21 (some centres unmarked) [Example 11.70]
3. Cc1nc2cc3c(cc2o1)C1(CO3)C(=O)Nc2ccccc21 (centres unmarked) [Example 3.12]
4. O=C1Nc2ccccc2C12COc1c(Cl)cc3c(c12)OCCO3 (centres unmarked) [Example 3.42]
5. O=C(Nc1ccccc1F)c1ccc(CN2C(=O)C3(COc4cc5c(cc43)OCCO5)c3ccccc32)cc1 (centres unmarked) [Example 12.65]
6. CCNC(=O)c1ccc(CN2C(=O)C3(COc4cc5c(cc43)CCO5)c3ccccc32)cc1 (centres unmarked) [Example 12.39]

result:
1. > 50%
2. > 50%
3. < 50%
4. < 50%
5. < 50%
6. > 50%
